pEC50: recorded values
MEASURED_ON: PA/PB1 (Influenza A virus (A/Puerto Rico/8/1934(H1N1)), UniProt P03431+P03433)
EXPERIMENT_SUMMARY: Inhibition of Influenza A virus A/PR/8/34 (H1N1) PA-PB1 interaction expressed in HEK293T cells assessed as decrease in RNA polymerase activity incubated for 24 hrs by minireplicon based luciferase reporter gene assay
Interpret pEC50 as the negative base-10 log of the concentration measured in mol/L.

Example entries begin here.
>  <COMPOUND>
Cc1ccc(-c2cc(-c3ccccc3)nc(SCC(=O)O)c2C#N)cc1

>  <pEC50>
4.37

$$$$
>  <COMPOUND>
Cc1ccc(-c2cc(-c3ccccc3)nc(SCC(N)=O)c2C#N)cc1

>  <pEC50>
4.19

$$$$
>  <COMPOUND>
Cc1ccc(-c2cc(-c3ccccc3)nc(SCC(=O)N[C@H](C(=O)O)C(C)C)c2C#N)cc1

>  <pEC50>
4.11

$$$$
>  <COMPOUND>
NC(=O)c1ncn([C@@H]2O[C@H](CO)[C@@H](O)[C@H]2O)n1 [RIBAVIRIN]

>  <pEC50>
4.62

$$$$
>  <COMPOUND>
COC(=O)[C@@H](NC(=O)CSc1nc(-c2ccccc2)cc(-c2ccc(C)cc2)c1C#N)C(C)C

>  <pEC50>
4.39

$$$$

Give pEC50 for the following compound: CC[C@H](C)[C@H](NC(=O)CSc1nc(-c2ccccc2)cc(-c2ccc(C)cc2)c1C#N)C(=O)OC
4.28

Provide only the value of recorded pEC50 for COC(=O)C[C@H](NC(=O)[C@@H](NC(=O)CSc1nc(-c2ccccc2)cc(-c2ccc(C)cc2)c1C#N)C(C)C)C(=O)OC
4.23

Give the measured pEC50 for Cc1cccc(NC(=O)CSc2nc(-c3ccccc3)cc(-c3ccccc3)c2C#N)c1
4.06

* * *

EXPERIMENT_SUMMARY: Cytotoxicity against MDCK cells assessed as decrease in cell viability after 48 hrs by MTT assay
Format: cell-based, Canis lupus familiaris
TEST_CONDITIONS: dog
RESULT_TYPE: CC50 at 48 h

>  <COMPOUND>
COC(=O)C[C@H](NC(=O)[C@@H](NC(=O)CSc1nc(-c2ccccc2)cc(-c2ccc(C)cc2)c1C#N)C(C)C)C(=O)N[C@@H](CCSC)C(=O)OC

>  <RESULT_TYPE>
CC50 at 48 h

>  <ENDPOINT_VALUE>
> 250 µM

$$$$
>  <COMPOUND>
COC(=O)[C@H](Cc1cnc[nH]1)NC(=O)CSc1nc(-c2ccccc2)cc(-c2ccc(C)cc2)c1C#N

>  <RESULT_TYPE>
CC50 at 48 h

>  <ENDPOINT_VALUE>
152 µM

$$$$
>  <COMPOUND>
Cc1ccc(-c2cc(-c3ccccc3)nc(SCNC(=O)OC(C)(C)C)c2C#N)cc1

>  <RESULT_TYPE>
CC50 at 48 h

>  <ENDPOINT_VALUE>
> 250 µM

$$$$
>  <COMPOUND>
Cc1cccc(NC(=O)CSc2nc(-c3ccccc3)cc(-c3ccccc3)c2C#N)c1

>  <RESULT_TYPE>
CC50 at 48 h

>  <ENDPOINT_VALUE>
> 250 µM

$$$$

From here, focus on the item given below.
Please list CC50 at 48 h recorded for the molecule Cc1ccc(-c2cc(-c3ccccc3)nc(SCC(=O)N[C@H](C(=O)O)C(C)C)c2C#N)cc1
> 250 µM

* * *

Parameter: CC50 at 24 h. Scope: all listed entries.
EXPERIMENT_SUMMARY: Cytotoxicity against HEK293T cells assessed as decrease in cell viability after 24 hrs by MTT assay
Assay type: cell-based, HEK-293T
TEST_CONDITIONS: human
The reply should be a number in µM, with the unit left off.

Past entries and their recorded results:
>  <COMPOUND>
CC[C@H](C)[C@H](NC(=O)CSc1nc(-c2ccccc2)cc(-c2ccc(C)cc2)c1C#N)C(=O)OC

>  <ENDPOINT_VALUE>
229

$$$$
>  <COMPOUND>
Cc1ccc(-c2cc(-c3ccccc3)nc(SCC(=O)N[C@H](C(=O)O)C(C)C)c2C#N)cc1

>  <ENDPOINT_VALUE>
250

$$$$
>  <COMPOUND>
Cc1ccc(-c2cc(-c3ccccc3)nc(SCC(N)=O)c2C#N)cc1

>  <ENDPOINT_VALUE>
218

$$$$

Quick one: give measured CC50 at 24 h for Cc1ccc(-c2cc(-c3ccccc3)nc(SCC(=O)O)c2C#N)cc1
218

* * *

MEASURED_ON: PA/PB1 (Influenza A virus (A/Puerto Rico/8/1934(H1N1)), UniProt P03431+P03433)
EXPERIMENT_SUMMARY: Inhibition of Influenza A virus A/PR/8/34 (H1N1) 6His-tagged PA (239 to 716 residues)/GST-tagged PB1 (1 to 25 residues) interaction expressed in Escherichia coli incubated overnight by ELISA
Here, each record is paired with measured pIC50 data.
# log scale: pIC50 equals minus log10 of the concentration in mol/L

>  <COMPOUND>
Cc1ccc(-c2cc(-c3ccccc3)nc(SCC(=O)N[C@H](C(=O)O)C(C)C)c2C#N)cc1

>  <pIC50>
4.12

$$$$
>  <COMPOUND>
Cc1ccc(-c2cc(-c3ccccc3)nc(SCC(=O)N[C@H](C(=O)N[C@@H](CC(=O)O)C(=O)O)C(C)C)c2C#N)cc1

>  <pIC50>
4.11

$$$$
>  <COMPOUND>
COC(=O)C[C@H](NC(=O)[C@@H](NC(=O)CSc1nc(-c2ccccc2)cc(-c2ccc(C)cc2)c1C#N)C(C)C)C(=O)OC

>  <pIC50>
3.84

$$$$
>  <COMPOUND>
COC(=O)[C@H](CCCNC(=N)N)NC(=O)CSc1nc(-c2ccccc2)cc(-c2ccc(C)cc2)c1C#N

>  <pIC50>
4.32

$$$$
>  <COMPOUND>
COC(=O)CC[C@H](NC(=O)CSc1nc(-c2ccccc2)cc(-c2ccc(C)cc2)c1C#N)C(=O)OC

>  <pIC50>
3.73

$$$$

Give pIC50 for the following molecule: Cc1ccc(-c2cc(-c3ccccc3)nc(SCC(=O)O)c2C#N)cc1
4.25

* * *

EXPERIMENT_SUMMARY: Cytotoxicity against MDCK cells assessed as decrease in cell viability after 48 hrs by MTT assay
Type: cell-based, Canis lupus familiaris
TEST_CONDITIONS: dog
RESULT_TYPE: CC50 at 48 h

Solved cases below.
>  <COMPOUND>
COC(=O)[C@H](Cc1ccc(O)cc1)NC(=O)CSc1nc(-c2ccccc2)cc(-c2ccc(C)cc2)c1C#N

>  <CC50 at 48 h>
> 250 µM

$$$$
>  <COMPOUND>
CCC(CC)O[C@@H]1C=C(C(=O)O)C[C@H](N)[C@H]1NC(C)=O [OSELTAMIVIR CARBOXYLATE]

>  <CC50 at 48 h>
> 250 µM

$$$$
>  <COMPOUND>
COC(=O)[C@H](CC(C)C)NC(=O)CSc1nc(-c2ccccc2)cc(-c2ccc(C)cc2)c1C#N

>  <CC50 at 48 h>
215 µM

$$$$

Give CC50 at 48 h for the following compound: COC(=O)CC[C@H](NC(=O)CSc1nc(-c2ccccc2)cc(-c2ccc(C)cc2)c1C#N)C(=O)OC
> 250 µM

* * *

# IC50 per record follows
MEASURED_ON: PA/PB1 (Influenza A virus (A/Puerto Rico/8/1934(H1N1)), UniProt P03431+P03433)
EXPERIMENT_SUMMARY: Inhibition of Influenza A virus A/PR/8/34 (H1N1) 6His-tagged PA (239 to 716 residues)/GST-tagged PB1 (1 to 25 residues) interaction expressed in Escherichia coli incubated overnight by ELISA
Express it in µM; write the number only.

>  <COMPOUND>
COC(=O)[C@@H](NC(=O)CSc1nc(-c2ccccc2)cc(-c2ccc(C)cc2)c1C#N)C(C)C

>  <MEASURED_ON>
PA/PB1 (Influenza A virus (A/Puerto Rico/8/1934(H1N1)), UniProt P03431+P03433)

>  <UNIT_NAME>
µM

>  <IC50>
167

$$$$

Provide measured IC50 value, entry: COC(=O)[C@H](Cc1cnc[nH]1)NC(=O)CSc1nc(-c2ccccc2)cc(-c2ccc(C)cc2)c1C#N
32

Provide IC50 value for the following molecule: COC(=O)[C@H](Cc1ccc(O)cc1)NC(=O)CSc1nc(-c2ccccc2)cc(-c2ccc(C)cc2)c1C#N
18

Give the reported value of IC50 for this record: COC(=O)[C@H](CC(C)C)NC(=O)CSc1nc(-c2ccccc2)cc(-c2ccc(C)cc2)c1C#N
149

Return IC50 for the following molecule: CC[C@H](C)[C@H](NC(=O)CSc1nc(-c2ccccc2)cc(-c2ccc(C)cc2)c1C#N)C(=O)OC
36

Supply reported IC50 belonging to this molecule: COC(=O)C[C@H](NC(=O)[C@@H](NC(=O)CSc1nc(-c2ccccc2)cc(-c2ccc(C)cc2)c1C#N)C(C)C)C(=O)N[C@@H](CCSC)C(=O)OC
68

Kindly indicate its recorded IC50. Item: Cc1ccc(-c2cc(-c3ccccc3)nc(SCC(N)=O)c2C#N)cc1
102
